# target_or_system: Trap-1 (Homo sapiens)
# Sequence (Q12931 60-704): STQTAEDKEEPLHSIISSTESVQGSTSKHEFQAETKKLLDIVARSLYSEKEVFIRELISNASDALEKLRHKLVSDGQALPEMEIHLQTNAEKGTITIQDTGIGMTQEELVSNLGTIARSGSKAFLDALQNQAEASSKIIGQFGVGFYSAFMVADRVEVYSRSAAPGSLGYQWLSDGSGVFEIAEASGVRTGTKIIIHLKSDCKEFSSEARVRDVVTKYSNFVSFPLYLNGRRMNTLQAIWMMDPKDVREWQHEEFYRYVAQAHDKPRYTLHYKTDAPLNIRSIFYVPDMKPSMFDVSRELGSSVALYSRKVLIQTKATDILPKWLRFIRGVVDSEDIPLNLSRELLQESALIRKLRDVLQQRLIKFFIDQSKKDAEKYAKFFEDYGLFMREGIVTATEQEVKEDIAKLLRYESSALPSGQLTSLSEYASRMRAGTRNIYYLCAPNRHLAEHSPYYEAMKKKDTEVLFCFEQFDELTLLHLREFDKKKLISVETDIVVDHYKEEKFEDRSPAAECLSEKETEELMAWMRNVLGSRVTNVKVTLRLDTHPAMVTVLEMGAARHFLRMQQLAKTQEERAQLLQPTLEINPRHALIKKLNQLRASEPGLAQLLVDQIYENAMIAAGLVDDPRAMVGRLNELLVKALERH
# experiment_notes: biochemical
pIC50: −log10 of the molar value.
The reader will find reported pIC50 values listed item by item below.

>  <molecule>
CC(C)(O)CNCCn1c(Sc2ccc(Cl)cc2Cl)nc2c(N)ncnc21

>  <target_or_system>
Trap-1 (Homo sapiens)

>  <measure>
pIC50

>  <observed_result>
5.59

$$$$
>  <molecule>
CC#CCn1c(Sc2cc(Cl)cc(Cl)c2)nc2c(N)ncnc21 [PDP-102A]

>  <target_or_system>
Trap-1 (Homo sapiens)

>  <measure>
pIC50

>  <observed_result>
< 4.30

$$$$
>  <molecule>
C#CCCCn1c(Sc2ccc(Cl)cc2C(F)(F)F)nc2c(N)ncnc21 [PDP-117A]

>  <target_or_system>
Trap-1 (Homo sapiens)

>  <measure>
pIC50

>  <observed_result>
4.46

$$$$
>  <molecule>
Nc1ncn(CCC(F)(F)F)c2nc(Sc3cc(Cl)cc(Cl)c3)nc1-2

>  <target_or_system>
Trap-1 (Homo sapiens)

>  <measure>
pIC50

>  <observed_result>
< 4.00

$$$$
>  <molecule>
C#CCCCn1cnc(N)c2nc(Sc3ccc(Cl)c(Cl)c3Cl)nc1-2 [PDP-126B]

>  <target_or_system>
Trap-1 (Homo sapiens)

>  <measure>
pIC50

>  <observed_result>
4.47

$$$$
>  <molecule>
Nc1ncn(Cc2ccccc2)c2nc(Sc3cc(Cl)cc(Cl)c3)nc1-2 [PDP-107B]

>  <target_or_system>
Trap-1 (Homo sapiens)

>  <measure>
pIC50

>  <observed_result>
< 4.00

$$$$
>  <molecule>
Nc1ncnc2c1nc(Sc1cc(Cl)cc(Cl)c1)n2CCCCCC(F)(F)F [PDP-101B]

>  <target_or_system>
Trap-1 (Homo sapiens)

>  <measure>
pIC50

>  <observed_result>
< 4.00

$$$$
>  <molecule>
N#CCCCn1cnc(N)c2nc(Sc3cc(Cl)cc(Cl)c3)nc1-2 [PDP-93B]

>  <target_or_system>
Trap-1 (Homo sapiens)

>  <measure>
pIC50

>  <observed_result>
< 4.00

$$$$
>  <molecule>
C#CCCCn1c(Sc2ccc(Cl)c(Cl)c2Cl)nc2c(N)ncnc21 [PDP-126A]

>  <target_or_system>
Trap-1 (Homo sapiens)

>  <measure>
pIC50

>  <observed_result>
5.39

$$$$
>  <molecule>
C#CCCCn1c(Sc2cccc3ccccc23)nc2c(N)ncnc21

>  <target_or_system>
Trap-1 (Homo sapiens)

>  <measure>
pIC50

>  <observed_result>
< 4.00

$$$$

// C#CCCCn1c(Sc2cc(Br)cc(I)c2)nc2c(N)ncnc21 [PDP-108A] : pIC50 value = < 4.30

// `C#CCCn1c(Sc2cc(Cl)cc(Cl)c2)nc2c(N)ncnc21` : pIC50 value = < 4.00

// C#CCCCn1c(Sc2cc(Cl)cc(Cl)c2Cl)nc2c(N)ncnc21 [PDP-125A] : pIC50 value = 5.22

// C#CCCCCn1cnc(N)c2nc(Sc3cc(Cl)cc(Cl)c3)nc1-2 [PDP-112B] : pIC50 value = < 4.00

// `C#CCCCn1c(Sc2ccc(Br)cc2CC)nc2c(N)ncnc21` : pIC50 value = 5.31

// C#CCCCn1cnc(N)c2nc(Sc3cc(Br)cc(OC(F)(F)F)c3)nc1-2 [PDP-120B] : pIC50 value = < 4.00

// CC(Br)CCCn1cnc(N)c2nc(Sc3cc(Cl)cc(Cl)c3)nc1-2 (stereo not shown) [PDP-99B] : pIC50 value = < 4.00

// Nc1ncn(CCCCCC(F)(F)F)c2nc(Sc3cc(Cl)cc(Cl)c3)nc1-2 [PDP-101A] : pIC50 value = < 4.00

// `CC(C)(CO)NCCn1c(Sc2ccc(Cl)cc2Cl)nc2c(N)ncnc21` : pIC50 value = 5.36
